# testedOn: T1, human GIP receptor (human, UniProt P48546 22-466)
# T1 sequence (looked up): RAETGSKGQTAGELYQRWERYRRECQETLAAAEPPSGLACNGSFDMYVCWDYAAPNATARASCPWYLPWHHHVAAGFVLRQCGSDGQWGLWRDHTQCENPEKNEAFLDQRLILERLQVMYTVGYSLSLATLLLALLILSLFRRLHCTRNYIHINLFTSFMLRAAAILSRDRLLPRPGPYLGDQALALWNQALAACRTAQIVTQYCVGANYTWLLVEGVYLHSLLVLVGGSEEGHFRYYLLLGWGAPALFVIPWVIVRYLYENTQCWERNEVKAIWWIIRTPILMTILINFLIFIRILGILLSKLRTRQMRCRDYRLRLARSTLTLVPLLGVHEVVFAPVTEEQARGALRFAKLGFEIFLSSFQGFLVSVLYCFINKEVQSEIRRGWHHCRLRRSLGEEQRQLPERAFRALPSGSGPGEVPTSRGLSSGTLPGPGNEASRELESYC
# protocol: cell-based or functional assay
*1 amine or outer side, *2 acyl side, *3 side chain or, on linkers, in order; H or OH if unused. Where no end group is shown, it is not given here. Side-chain parts run from the residue outwards. [ ]: non-standard residue; d: D form. The star is where a group is joined. C16 diacid = O=C(O)CCCCCCCCCCCCCCC(=O)*; γGlu = O=C(O)[C@H](CCC(=O)[*:2])N[*:1]; pGlu = O=C1CC[C@@H](C(=O)O)N1; AEEA = NCCOCCOCC(=O)O
reportedMetric: CisBio cAMP antagonism IC50 (nM)
Answers are plain numbers, in nM.

Illustrative cases are given below, each with its answer.
binder	reportedMetric	reportedResult
TFISDYSIALDRIKQQDFVNWLLAQR-NH2 (not fully specified (residue 14); printed as TFISDYSIALDRIKQQDFVNWLLAQR-(AEEAc +γ-Glu)-C16-diacid/K18) [AT234]	CisBio cAMP antagonism IC50	39.8
[pGlu]GTFISDYSIAMDRIK([AEEA-AEEA-γGlu-C16 diacid])QQDFVNWLLAQR-NH2 [AT379]	CisBio cAMP antagonism IC50	21.5
EGTFISDYSIAMDRIK([AEEA-AEEA-AEEA-γGlu-C16 diacid])QQDFVNWLLAQR-NH2 (not fully specified (residue 1)) [AT375]	CisBio cAMP antagonism IC50	23.3

Could you now consider this next binder?
# input binder: EGTFISDYSIAMDRIK([AEEA-γGlu-C16 diacid])QQDFVNWLLAQR-NH2 (not fully specified (residue 1)) [AT373] ; wanted: its CisBio cAMP antagonism IC50
12.6

Where these numbers come from: patent US20220025010A1
